Reference for the values: patent US6596288B2

# Tested on: human adipocytes
# TEST_PROTOCOL: liberation of NEFA (non-esterified fatty acids) (LIPOLYSIS) by isolated human adipocytes
# Type: cell-based
# TEST_PARAMETERS: 10^−6 M (1 μM); 2 hours at 37° C.
Listed below: % Control (NEFA liberation) values for each entry.
# output: bare number, implied unit %

CC[C@H](/C=C/[C@@H](C)[C@H]1CC[C@H]2[C@@H]3CC=C4C[C@@H](O)CC[C@]4(C)[C@H]3CC[C@]12C)C(C)C [Stigmasterol, stigmasterol]
112
CC(C)NCC(O)c1ccc(O)c(O)c1 (stereo not shown) [Isoproterenol, isoproterenol, reference compound]
342
CC(C)[C@H](C)CC[C@@H](C)[C@H]1CC[C@H]2[C@@H]3CC=C4C[C@@H](O)CC[C@]4(C)[C@H]3CC[C@]12C [Campesterol, campesterol]
117

Next up:
# value of % Control (NEFA liberation), human adipocytes, item CC[C@H](CC[C@@H](C)[C@H]1CC[C@H]2[C@@H]3CC=C4C[C@@H](O)CC[C@]4(C)[C@H]3CC[C@]12C)C(C)C [Beta-sitosterol, beta-sitosterol] = 110
